- TARGET SYSTEM: human DGKζ (Homo sapiens)
- Construct: TVMV protease cleavage site (C); Hexa-His (C); made in house; host or cells: Sf9 insect cells (baculovirus, Bac-to-Bac)
- EXPERIMENT SUMMARY: DGKζ LIPGLO assay (extruded liposome substrate), in vitro DGK inhibition
- Type: biochemical
- PROTOCOL CONDITIONS: liposome (LIPGLO) assay; read-out: DGKz LIPGLO IC50
MEASURE NAME: IC50 (nM)

(1) CC(c1ccc(OC(F)F)cn1)N1C[C@H](C)N(c2cc(=O)n(C)c3ccc(C#N)nc23)C[C@H]1C (single isomer, unassigned) [Example 1225]
(2) CCC(c1ccc(C2CC2)cc1)N1C[C@H](C)N(c2cc(=O)n(C)c3ccc(C#N)nc23)C[C@H]1C (single isomer, unassigned) [Example 1221]
Exercise: compare 1 and 2 ; which one has the greater IC50? Your answer should be the label attached to the chosen record.
2

----------
- TARGET SYSTEM: human DGKζ (Homo sapiens, UniProt Q13574)
- Construct: TVMV protease cleavage site (C); Hexa-His (C); made in house; host or cells: Sf9 insect cells (baculovirus, Bac-to-Bac)
- Sequence (Q13574 with tags, fused parts or gaps isoform Q13574-4): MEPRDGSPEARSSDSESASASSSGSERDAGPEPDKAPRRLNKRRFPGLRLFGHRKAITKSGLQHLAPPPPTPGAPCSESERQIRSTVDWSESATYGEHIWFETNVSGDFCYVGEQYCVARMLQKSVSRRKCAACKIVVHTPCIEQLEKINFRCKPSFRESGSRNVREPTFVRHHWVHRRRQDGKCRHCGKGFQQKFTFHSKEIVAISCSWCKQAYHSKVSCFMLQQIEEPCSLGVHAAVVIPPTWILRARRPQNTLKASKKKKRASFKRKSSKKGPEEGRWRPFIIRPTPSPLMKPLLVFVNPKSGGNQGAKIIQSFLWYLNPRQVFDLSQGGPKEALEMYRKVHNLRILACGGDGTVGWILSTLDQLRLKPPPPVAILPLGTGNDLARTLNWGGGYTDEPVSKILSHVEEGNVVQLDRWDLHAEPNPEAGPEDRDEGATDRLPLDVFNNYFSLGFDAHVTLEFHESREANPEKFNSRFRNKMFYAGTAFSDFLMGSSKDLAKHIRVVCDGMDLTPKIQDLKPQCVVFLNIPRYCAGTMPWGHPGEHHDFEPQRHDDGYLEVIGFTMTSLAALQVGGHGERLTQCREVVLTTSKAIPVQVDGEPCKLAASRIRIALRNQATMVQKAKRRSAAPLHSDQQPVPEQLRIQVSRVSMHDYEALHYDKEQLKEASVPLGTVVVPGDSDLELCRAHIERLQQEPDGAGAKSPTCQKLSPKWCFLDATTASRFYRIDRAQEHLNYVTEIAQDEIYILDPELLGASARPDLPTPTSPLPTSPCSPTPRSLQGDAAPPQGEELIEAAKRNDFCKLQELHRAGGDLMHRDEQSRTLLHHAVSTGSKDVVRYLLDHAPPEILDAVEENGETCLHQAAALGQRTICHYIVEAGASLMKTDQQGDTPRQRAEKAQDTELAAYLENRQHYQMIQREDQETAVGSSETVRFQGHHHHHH
- EXPERIMENT SUMMARY: DGKζ LIPGLO assay (extruded liposome substrate), in vitro DGK inhibition
- Assay type: biochemical
- PROTOCOL CONDITIONS: liposome (LIPGLO) assay; read-out: DGKz LIPGLO IC50
pIC50: −log10 of the molar value.
MEASURE NAME: pIC50

Reference set (5 entries):
COMPOUND	VAL
C[C@@H]1CN(c2cc(=O)n(C)c3ccc(C#N)nc23)[C@@H](C)CN1C(c1ccccc1)c1ccc(Cl)cc1 (single isomer, unassigned) [Example 671]	5.49
COC[C@@H]1CN(c2cc(=O)n(C)c3ccc(C#N)nc23)[C@@H](C)CN1C(C)c1ccc(F)cc1 (single isomer, unassigned) [Example 1159]	6.89
C[C@@H]1CN(c2cc(=O)n(C)c3ccc(C#N)nc23)[C@@H](C)CN1Cc1noc2ccccc12	5.55
Cn1c(=O)cc(N2CCN(C(c3ccc(F)cc3)c3ccc(F)cc3)C(C(=O)O)C2)c2nc(C#N)ccc21 (stereo not shown)	3.74
Cc1oncc1CN1C[C@H](C)N(c2cc(=O)n(C)c3ccc(C#N)nc23)C[C@H]1C	4.92

(1) Cc1ccc(C(c2cccc(F)c2)N2C[C@H](C)N(c3cc(=O)n(C)c4ccc(C#N)nc34)C[C@H]2CO)nc1 (stereo partly shown) [Example 1153]
(2) C[C@@H]1CN(c2cc(=O)n(C)c3ccc(C#N)nc23)[C@@H](C)CN1Cc1ccc(Cl)cc1
// which entry has the larger pIC50 value, 1 or 2 ? // respond with label for picked entry
2
(2: 5.70, 1: 4.49)

----------
- TARGET SYSTEM: human DGKα (Homo sapiens, UniProt P23743)
- Construct: TVMV protease cleavage site (C); Hexa-His (C); made in house; host or cells: Sf9 insect cells (baculovirus, Bac-to-Bac)
- Sequence (P23743 with tags, fused parts or gaps): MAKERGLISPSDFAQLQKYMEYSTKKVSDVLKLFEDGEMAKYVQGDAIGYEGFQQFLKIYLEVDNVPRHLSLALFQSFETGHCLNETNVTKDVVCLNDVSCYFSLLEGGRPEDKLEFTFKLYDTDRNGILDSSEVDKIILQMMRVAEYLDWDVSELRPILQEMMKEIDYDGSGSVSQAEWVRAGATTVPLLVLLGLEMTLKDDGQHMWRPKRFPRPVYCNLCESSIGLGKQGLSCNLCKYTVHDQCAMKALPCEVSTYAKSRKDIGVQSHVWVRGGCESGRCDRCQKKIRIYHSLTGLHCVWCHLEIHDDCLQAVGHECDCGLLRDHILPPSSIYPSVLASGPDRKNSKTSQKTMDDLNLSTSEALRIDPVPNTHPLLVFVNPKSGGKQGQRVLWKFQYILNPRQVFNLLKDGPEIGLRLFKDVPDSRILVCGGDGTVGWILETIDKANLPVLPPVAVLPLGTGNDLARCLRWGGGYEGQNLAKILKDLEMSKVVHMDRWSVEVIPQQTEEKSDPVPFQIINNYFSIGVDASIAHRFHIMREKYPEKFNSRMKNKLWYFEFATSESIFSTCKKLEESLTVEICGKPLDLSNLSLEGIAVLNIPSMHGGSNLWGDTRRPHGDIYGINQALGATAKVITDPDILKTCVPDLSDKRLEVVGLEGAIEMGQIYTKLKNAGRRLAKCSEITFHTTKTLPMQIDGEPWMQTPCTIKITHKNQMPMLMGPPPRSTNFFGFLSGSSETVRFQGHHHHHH
- EXPERIMENT SUMMARY: DGKα LIPGLO assay (extruded liposome substrate), in vitro DGK inhibition
- Type: biochemical
- PROTOCOL CONDITIONS: liposome (LIPGLO) assay; read-out: DGKa LIPGLO IC50
pIC50: −log10 of the molar value.
MEASURE NAME: pIC50

Study these solved cases before continuing.
COMPOUND	VAL
C[C@@H]1CN(c2cc(=O)n(C)c3ccc(C#N)nc23)[C@@H](C)CN1C(c1ccccc1)c1cccc(F)c1F (stereo partly drawn)	5.92
Cc1ccc(C(c2cccc(F)c2)N2C[C@H](C)N(c3cc(=O)n(C)c4ccc(C#N)nc34)C[C@H]2CO)nc1 (stereo partly drawn) [Example 1154]	5.09

(1) CC(c1ccc(OC(F)(F)F)c(F)c1)N1C[C@H](C)N(c2cc(=O)n(C)c3ccc(C#N)nc23)C[C@H]1C (single isomer, unassigned) [Example 1205]
(2) C[C@@H]1CN(c2cc(=O)n(C)c3ccc(C#N)nc23)[C@@H](C)CN1C(c1ccc(F)cc1)c1nc(C2CC2)cs1 (single isomer, unassigned) [Example 700]
(3) C[C@@H]1CN(c2cc(=O)n(C)c3ccc(C#N)nc23)[C@@H](C)CN1C(c1ccccc1)c1ccc(F)cc1F (stereo partly drawn)
(4) C[C@@H]1CN(C(c2ccc(F)cc2)c2ccc(F)cc2)[C@@H](C)CN1c1c(C#N)c(=O)n(C)c2ccc(Br)nc12
# rank_down: sort by pIC50, max first Reply with the item labels sorted in the order that was asked for.
2, 3, 1, 4
(2: 6.42, 3: 6.19, 1: 5.77, 4: 4.64)

----------
- TARGET SYSTEM: human DGKα (Homo sapiens, UniProt P23743)
- Construct: TVMV protease cleavage site (C); Hexa-His (C); made in house; host or cells: Sf9 insect cells (baculovirus, Bac-to-Bac)
- EXPERIMENT SUMMARY: DGKα LIPGLO assay (extruded liposome substrate), in vitro DGK inhibition
- Assay type: biochemical
- PROTOCOL CONDITIONS: DGKα liposome (LIPGLO) assay; read-out: DGKa LIPGLO IC50
pIC50: −log10 of the molar value.
MEASURE NAME: pIC50

COMPOUND	pIC50
Cc1cc(C(c2ccc(F)cc2)N2C[C@H](C)N(c3cc(=O)n(C)c4ccc(C#N)nc34)C[C@H]2C)no1 (single isomer, unassigned) [Example 733]	5.39

(P) C[C@@H]1CN(c2c(C#N)c(=O)n(C)c3ccc(C#N)nc23)[C@@H](C)CN1C(c1ccc(F)cc1)c1csc(C2CC2)n1 (single isomer, unassigned) [Example 859]
(Q) Cc1ccc(C(c2ccc(F)cc2Cl)N2C[C@H](C)N(c3c(C#N)c(=O)n(C)c4ccc(C#N)nc34)C[C@H]2C)nc1 (stereo partly drawn) [Example 832]
Could you tell me which of these two has the smaller pIC50 figure? First: P Second: Q In your reply, give the label of the chosen option.
Q
(Q: 4.72, P: 5.52)

----------
- TARGET SYSTEM: human DGKζ (Homo sapiens)
- Construct: TVMV protease cleavage site (C); Hexa-His (C); made in house; host or cells: Sf9 insect cells (baculovirus, Bac-to-Bac)
- EXPERIMENT SUMMARY: DGKζ LIPGLO assay (extruded liposome substrate), in vitro DGK inhibition
- Type: biochemical
- PROTOCOL CONDITIONS: liposome (LIPGLO) assay; read-out: DGKz LIPGLO IC50
MEASURE NAME: IC50 (nM)

Known IC50 results, listed for orientation:
COMPOUND	TARGET SYSTEM	MEASUREMENT UNIT	VAL
CC(c1ccccc1OC(F)(F)F)N1C[C@H](C)N(c2cc(=O)n(C)c3ccc(C#N)nc23)C[C@H]1C (single isomer, unassigned) [Example 1212]	human DGKζ (Homo sapiens)	nM	110
CC[C@H]1CN(C(C)c2ccc(C3CC3)cc2F)[C@H](CC)CN1c1cc(=O)n(C)c2ccc(C#N)nc12 (single isomer, unassigned) [Example 1358]	human DGKζ (Homo sapiens)	nM	680
Cc1cccc(C(c2ccc(F)cc2)N2C[C@H](C)N(c3cc(=O)n(C)c4ccc(C#N)nc34)C[C@H]2C)n1 (single isomer, unassigned) [Example 204]	human DGKζ (Homo sapiens)	nM	220
C[C@@H]1CN(c2cc(=O)n(C)c3ccc(C#N)nc23)[C@@H](C)CN1Cc1ccc(C(F)(F)F)nc1Cl	human DGKζ (Homo sapiens)	nM	4400
CC[C@@H]1CN(c2cc(=O)n(C)c3ccc(C#N)nc23)[C@@H](C)CN1C(C)c1ccc(OC(C)C)cc1 (single isomer, unassigned) [Example 1348]	human DGKζ (Homo sapiens)	nM	15

(I) CC[C@@H]1CN(c2cc(=O)n(C)c3ccc(C#N)nc23)CCN1C(c1ccc(F)cc1)c1ccc(F)cc1
(II) COC(=O)C1CN(C(c2ccc(F)cc2)c2ccc(F)cc2)CCN1c1c(C#N)c(=O)n(C)c2ccc(C#N)nc12 (single isomer, unassigned) [Example 116]
(III) C[C@@H]1CN(c2cc(=O)n(C)c3ccc(C#N)nc23)[C@@H](C)CN1Cc1cc(F)ccc1F
(IV) Cn1c(=O)cc(N2CCN(C(c3ccc(F)cc3)c3ccc(F)cc3)CC2C(=O)NC2CC2)c2nc(C#N)ccc21 (single isomer, unassigned) [Example 140]
Arrange the 4 entries by IC50 so the values rise. Reply format: the labels, ordered as requested.
I, III, II, IV

(P) CC[C@@H]1CN(c2cc(=O)n(C)c3ccc(C#N)nc23)[C@@H](C)CN1C(c1cccc(F)c1)c1ccc(F)cn1 (single isomer, unassigned) [Example 1108]
(Q) C[C@@H]1CN(c2cc(=O)n(C)c3ccc(C#N)nc23)[C@@H](C)CN1C(c1ccc(Cl)cc1)c1ncccc1F (single isomer, unassigned) [Example 190]
(R) COc1ccc(OC(F)(F)F)cc1CN1C[C@H](C)N(c2cc(=O)n(C)c3ccc(C#N)nc23)C[C@H]1C
List items by IC50 in falling order. In your reply, arrange the labels in the requested order.
R, Q, P
